- TARGET OR SYSTEM: T1, Cynomolgus OSM (cynomolgus, UniProt A0A2K5VPC6 26-221)
- T1 construct: also called Cyno OSM; cynomolgus macaque OSM
- T1 sequence: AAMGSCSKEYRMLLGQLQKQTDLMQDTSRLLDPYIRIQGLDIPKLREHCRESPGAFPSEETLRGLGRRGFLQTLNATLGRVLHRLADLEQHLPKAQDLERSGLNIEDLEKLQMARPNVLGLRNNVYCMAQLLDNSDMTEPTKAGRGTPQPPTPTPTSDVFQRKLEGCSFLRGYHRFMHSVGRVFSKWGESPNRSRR
- ASSAY SUMMARY: BIAcore kinetics
READOUT TYPE: koff (s⁻¹)
Reply with just the number (in s⁻¹).

Given the entry anti human OSM mAb S168110G08(1)1A09 (10G8), murine (antibody, V domains shown, Mouse hybridoma mAb; also called 10G8/A9; 10G8.A9) VH: EMQLVESGEGLVEPGGSLKLSCAASGFTFSNYAMSWVRQTPEKSLEWVATISDGGSFTYYLDNVRGRFTISRDNAKNNLYLQMSHLKSDDTAMYYCARDVGHTTFWYFDVWGSGTAVTVSS VL: DIVLTQSPVFLVVSLGQRATISCRASKSVSAAGYNFMHWYQQKPGQPPKVLIKYASNLESGVPARFSGSGSGTDFTLNIHPVEEEDAVTYYCLHSREFPFTFGGGTNLEIK , report its measured koff. 2.99e-05

# query: koff of entry 10G8 chimaera (antibody, human IgG1, kappa, V domains shown, Mouse V regions on human gamma 1 wild type and human kappa constant regions; the entries called VH/VL domain (chimera) are full chains; also called 10G8 chimera; 10G8 Chimæra) VH: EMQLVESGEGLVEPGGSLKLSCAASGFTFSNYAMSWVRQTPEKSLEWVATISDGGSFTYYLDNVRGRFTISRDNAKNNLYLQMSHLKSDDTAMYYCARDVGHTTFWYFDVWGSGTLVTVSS VL: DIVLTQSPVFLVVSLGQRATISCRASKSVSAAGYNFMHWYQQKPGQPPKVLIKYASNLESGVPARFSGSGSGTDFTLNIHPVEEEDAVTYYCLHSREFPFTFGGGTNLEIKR 0.000114

Report koff for 9G2, murine anti-OSM mAb (antibody, V domains shown, Mouse hybridoma mAb; also called 9G2/C1; 9G2.C1) VH: EVQLVESGGGLVEPGGSLKLSCAASGFTFSNYAMSWVRQTPEKRLEWVATISDGGSFTYYLDNVKGRFTISRDNAKNNLYLQMSHLKSDDTAMYYCARDVGHTTFWYFDVWGTGTTVTVSS VL: DIVLTQSPVFLVISLGQRATISCRASKSVSASGYNFMHWYQQKPGQPPKVLIKYASNLESGVPARFSGSGSGTDFTLNIHPVEEEDAVTYYCQHSREFPFTFGGGTKLEIK please. 4.76e-05

Fill blank: measured koff of the binder 9G2 chimaera (antibody, human IgG1, kappa, V domains shown, Mouse V regions on human gamma 1 wild type and human kappa constant regions; also called 9G2 chimera) VH: EVQLVESGGGLVEPGGSLKLSCAASGFTFSNYAMSWVRQTPEKRLEWVATISDGGSFTYYLDNVKGRFTISRDNAKNNLYLQMSHLKSDDTAMYYCARDVGHTTFWYFDVWGTGTLVTVSS VL: DIVLTQSPVFLVISLGQRATISCRASKSVSASGYNFMHWYQQKPGQPPKVLIKYASNLESGVPARFSGSGSGTDFTLNIHPVEEEDAVTYYCQHSREFPFTFGGGTKLEIKR is ____. 9.99e-05
